tested on: CAKI-1; test: NCI tumour cell line growth inhibition, 48 h
Active and inactive are the calls of the source. Rule as the data show it: active = GI50 up to about 1.1 µM and inactive = higher.
measurementLabel: GI50

A selection of reference data follows.
| compound | GI50 |
| --- | --- |
| C(=C\N1CCCCC1)/c1nnnn1-c1ccccc1 | 12.4 µM (inactive) |
| CC[C@@]1(C[C@H]2C[C@@]3(C(=O)OC)c4[nH]c5ccccc5c4CCN3C2=O)COC2(CCCCC2)O1 | 36.2 µM (inactive) |
| O=C(O)CCCCn1ccc(=O)[nH]c1=O | > 100 µM (inactive) |

Look up GI50 for this compound: "Nc1nc(Cl)cc(NCC2(CO)CCCC2)n1"
> 100 µM (inactive)

* * *

Below, each entry is listed with its recorded GI50.
test system: TK-10; assay: NCI tumour cell line growth inhibition, 48 h
Calls of active or inactive are those of the source. Cut-off read from the data, not from the text of the source: active = GI50 up to about 1.1 µM and inactive = higher.

A selection of reference data follows.
| molecule | endpointValue |
| --- | --- |
| Nc1ccc(C(=O)O)cc1.Nc1nc(N)c2nc[nH]c2n1 | 19.8 µM (inactive) |
| COc1ccccc1/C=N/Nc1nnc2c3ccccc3c3ncccc3c2n1 | 28.6 µM (inactive) |
| C[C@]12CC[C@H](O)CC1=CC[C@@H]1C2CC[C@]2(C)Nc3c(cnn3-c3ccccc3)CC12 (some centres not stated) | 9.48 µM (inactive) |
| CCOc1cc(NC(C)=O)ccc1C(=O)NN1C(=O)C(Oc2ccccc2)C1c1ccccc1 (configuration not stated) | > 100 µM (inactive) |
| O=C1N[C@@H]2O[C@H](CNC(=O)c3cc(Br)c[nH]3)C[C@]2(O)N1.O=C1N[C@H]2O[C@H](CNC(=O)c3cc(Br)c[nH]3)C[C@@]2(O)N1 | > 100 µM (inactive) |

Look up GI50 for this molecule: O=C(O)CC(NC(=O)C(F)(F)F)C(=O)NC1Cc2ccccc2OC1=O (configuration not stated)
> 100 µM (inactive)

Check Nc1nc(Cl)c2ncn(CCCC(c3ccccc3)P(=O)(O)O)c2n1 (configuration not stated) too.
> 100 µM (inactive)

Check "CN1CCN(c2cc3nc4cc(O)cc(O)c4c(O)c3cc2N)CC1" too.
30.7 µM (inactive)

Check "N#CC1(CCCCl)CCCCC1" too.
> 100 µM (inactive)

Check "CN(C)CCNC(=O)c1cccc2nc3cccc(F)c3nc12" too.
2 µM (inactive)

Check "COc1ccc(/C=N/c2ccc(-c3nc4ccccc4s3)cc2)cc1OC" too.
28.6 µM (inactive)

Check CC1CC2OC(=O)C(C)C2CC2(C)C(OC3OC(CO)C(O)C(O)C3O)OCCC12 (configuration not stated) too.
> 100 µM (inactive)

* * *

// GI50 collected for HCT-15

| compound | testTarget | GI50 |
| --- | --- | --- |
| COc1ccc(Nc2nc(NNC(=O)Cc3ccccc3)nc(NNC(=O)c3ccncc3)n2)cc1 | HCT-15 | > 10 µM |

Look up GI50 for this compound: "CCC(=O)Nc1ccc(/N=C/c2cccc(Oc3ccccc3)c2)cc1"
> 100 µM

Check "CCN(CC)CCNC(=O)c1nn(C)c(=S)[nH]c1=S" too.
> 100 µM

* * *

tested on: HOP-92; test: NCI tumour cell line growth inhibition, 48 h
The source made the active and inactive calls. Cut-off read from the data, not from the text of the source: active = GI50 up to about 1.1 µM and inactive = higher.
measurementLabel: GI50

| compound | measurementLabel | endpointValue |
| --- | --- | --- |
| O=c1c(Sc2c(O)c3ccccc3c3ccccc3c2=O)c(O)c2ccccc2c2ccccc12 | GI50 | 29.3 µM (inactive) |
| CN1CCc2[nH]c3ccccc3c2C1 | GI50 | > 100 µM (inactive) |

Look up GI50 for this compound: "N#Cc1c(-c2cccc(Cl)c2)cc(-c2ccc(Cl)cc2)nc1N"
10.9 µM (inactive)

* * *

tested on: HCT-116; experiment: NCI tumour cell line growth inhibition, 48 h
Calls of active or inactive are those of the source. Cut-off read from the data, not from the text of the source: active = GI50 up to about 1.1 µM and inactive = higher.
Below, each entry is listed with its recorded GI50.

A selection of reference data follows.
| compound | GI50 |
| --- | --- |
| O=C(N/N=C(\c1ccccc1)c1ccccn1)NC1CCCCC1 | 55.6 µM (inactive) |
| O=c1[nH]c2ccccc2c(=O)n1/N=C/c1ccc(O)cc1 | > 100 µM (inactive) |
| CS(=O)(=O)Sc1ccc(Cl)cc1 | 5.7 µM (inactive) |
| O=C(Nc1nnc(-c2ccc(Cl)cc2)o1)C(SC(=S)N1CCOCC1)c1ccccc1 (stereo not given) | 10.2 µM (inactive) |

Look up GI50 for this compound: "CN(C)CC/C(=N\Nc1ccc([N+](=O)[O-])cc1)c1ccccc1"
11.7 µM (inactive)

* * *

tested on: SK-MEL-2; assay: NCI tumour cell line growth inhibition, 48 h
The source made the active and inactive calls. Rule as the data show it: active = GI50 up to about 1.1 µM and inactive = higher.
measurementLabel: GI50

A selection of reference data follows.
| compound | GI50 |
| --- | --- |
| CS(=O)(=O)Sc1ccc(Cl)cc1 | 6.84 µM (inactive) |
| CN1CCN(C2=C(Cl)C(=O)c3c(O)ccc(O)c3C2=O)CC1 | 1.21 µM (inactive) |
| CCOP(=O)(Nc1ccc(-c2ccc(N)cc2)cc1)OCC | > 100 µM (inactive) |
| N#CCCN(c1ccc(/C=N/c2cccc([N+](=O)[O-])c2)cc1)S(=O)(=O)c1ccccc1 | > 100 µM (inactive) |
| O=C1c2ccccc2C(=O)C1C(c1ccc(F)cc1)C1C(=O)c2ccccc2C1=O | > 100 µM (inactive) |

Look up GI50 for this compound: CCOc1cc(NC(C)=O)ccc1C(=O)NN1C(=O)C(Oc2ccccc2)C1c1ccccc1 (stereo not given)
> 100 µM (inactive)

Check CC(C)[Si]1(C(C)C)OCC2OC(n3ccc(=O)[nH]c3=O)C([Se]c3ccccc3)C2O[Si](C(C)C)(C(C)C)O1 (stereo not given) too.
6.79 µM (inactive)

Check "CCCCCCCCCCCc1c(O)c(=O)c2c(oc3c(=O)c(CCCCCCCCCCC)c(O)c(=O)c3n2-c2ccc(N(C)C)cc2)c1=O" too.
21.7 µM (inactive)

Check CO[C@H]1C=C[C@]23c4cc5c(cc4CN(CC2O)[C@@H]3C1)OCO5 (stereo not given in full) too.
1.08 µM (active)

Check "Cn1c([N+](=O)[O-])cnc1CN1CCN(CCO)CC1" too.
> 100 µM (inactive)

Check "O=C1C=C2CC[C@H]3[C@@H]4CC[C@H](OC(=O)c5cccc6cc7ccccc7nc56)[C@H]4CC[C@@H]3[C@H]2CC1" too.
> 100 µM (inactive)

Check "N#Cc1nc(C#N)c(NC(=O)c2ccccc2C(=O)O)[nH]1" too.
> 100 µM (inactive)

Check "CC1=N/C(=C\c2ccc([N+](=O)[O-])cc2)C(=O)O1" too.
> 100 µM (inactive)

Check "COc1ccc2c(n1)Sc1nc3ccccc3nc1N2" too.
> 100 µM (inactive)

Check "COc1ccc(/C=C/c2sc3ccccc3[n+]2CCCCI)cc1OC" too.
3.61 µM (inactive)

* * *

system: SF-539; test: NCI tumour cell line growth inhibition, 48 h
Activity calls are given as the source filed them. Rule as the data show it: active = GI50 up to about 1.1 µM and inactive = higher.
Below, each entry is listed with its recorded GI50.

| molecule | measurementLabel | endpointValue |
| --- | --- | --- |
| COc1cc(/C=C/C(=O)c2sc(NNC(C)=O)nc2C)ccc1O | GI50 | > 100 µM (inactive) |
| CCCSc1nc(-c2ccc(OC)cc2)c(C#N)c(=O)n1C1OC(COC(C)=O)C(OC(C)=O)C(OC(C)=O)C1OC(C)=O (configuration not stated) | GI50 | > 100 µM (inactive) |
| O=C1NC2OCC(O)C(O)C2O1 (configuration not stated) | GI50 | > 100 µM (inactive) |
| CCOC(=O)C1(C(=O)OCC)C[C@]23OCCC(=O)[C@H]2[C@H]2C(=O)OC(C)(C)O[C@]23C1 | GI50 | > 100 µM (inactive) |
| CCCCCCCCCCCc1cc(=O)c2c(O)cccc2o1 | GI50 | > 100 µM (inactive) |
| CCOc1cc(NC(C)=O)ccc1C(=O)NN1C(=O)C(Oc2ccccc2)C1c1ccccc1 (configuration not stated) | GI50 | 78 µM (inactive) |
| Nc1nc(SCC(=O)c2ccccc2)c2[nH]cnc2n1 | GI50 | > 100 µM (inactive) |
| CC(C)=CCC[C@@H](C)C1=C(O)C(=O)C(C)=C(Nc2ccccc2Br)C1=O | GI50 | 8.59 µM (inactive) |
| c1ccc2c(c1)cc1ccc3cccc4ccc2c1c34 | GI50 | > 100 µM (inactive) |
| O=C(N[C@H]1c2ccsc2/C(=N/O)[C@H]1O)C(F)(F)F | GI50 | > 100 µM (inactive) |

Look up GI50 for this molecule: "Cc1ccc(S(=O)(=O)N/N=C/c2oc(-c3cccc([N+](=O)[O-])c3)c(-c3cccc([N+](=O)[O-])c3)c2[N+](=O)[O-])cc1"
> 100 µM (inactive)

Check CC1C(=O)C23OC[C@@]1(C)C1(O)CC[C@@H](C)[C@]21CC3=O (some centres not stated) too.
> 100 µM (inactive)
